assay: Brain and plasma concentration after administration; type: in vivo; conditions: brain and plasma; 1 mg/kg; 0.08, 0.5 and 1 hour; read-out: brain concentration and plasma concentration ratio
READOUT_LABEL: Kp

>>> value("O=C(Nc1cccc2[nH]ccc12)c1ccc(F)cc1 [Compound 8, 4-fluoro-N-(1H-indol-4-yl)benzamide]")
"> 1"
